Origin of values: PubChem BioAssay AID1851

TARGET_DESC: Cytochrome P450 2D6 (Homo sapiens) (UniProt P10635)
Sequence (P10635 whole entry, looked up): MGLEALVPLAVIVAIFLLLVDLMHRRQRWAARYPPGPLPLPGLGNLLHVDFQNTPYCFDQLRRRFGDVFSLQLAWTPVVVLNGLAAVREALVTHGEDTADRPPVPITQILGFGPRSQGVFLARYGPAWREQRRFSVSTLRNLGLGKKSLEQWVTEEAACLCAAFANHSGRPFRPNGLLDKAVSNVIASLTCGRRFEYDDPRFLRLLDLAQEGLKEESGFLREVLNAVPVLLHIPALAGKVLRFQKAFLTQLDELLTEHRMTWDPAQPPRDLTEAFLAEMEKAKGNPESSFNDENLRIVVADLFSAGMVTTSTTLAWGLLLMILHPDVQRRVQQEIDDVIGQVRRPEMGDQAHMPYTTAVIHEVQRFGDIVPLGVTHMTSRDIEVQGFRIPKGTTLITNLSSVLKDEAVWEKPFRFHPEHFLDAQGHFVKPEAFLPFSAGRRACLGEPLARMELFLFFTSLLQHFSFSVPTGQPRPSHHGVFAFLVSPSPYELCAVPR
ASSAY_OVERVIEW: Cytochrome panel assay with activity outcomes
RECORDED_CONDITIONS: recombinant CYP, pro-luciferin dealkylation, luminescence, p450-cyp2d6; series mostly up to 57.1 µM
In all, about 16,000 compounds went through this assay and about 2,600 (16%) were called active. Another 20% or so got no clear call; they are omitted. The call rests on the fitted dose curve; in most records, active means well fitted curve in the direction sought with a large enough effect; inconclusive means small, poorly fitted or top-dose-only effect, or effect the other way; inactive means no such curve, though single readings can be large or run the other way. A selection follows.
// one of 1 = active, 0 = inactive, no free text

Below are worked cases with known answers.
CC(=O)c1ccc(NC(=O)C2CC(c3ccc(F)cc3)=NO2)cc1 (centres undefined) | 0
Cn1ncc(C#N)c1NC(=O)C1CC(c2ccc(Cl)cc2)=NO1 (centres undefined) | 1
CC(C)CC(=O)N[C@H](C(=O)N[C@H](C(=O)N[C@@H](CC(C)C)[C@H](O)CC(=O)N[C@@H](C)C(=O)N[C@@H](CC(C)C)[C@H](O)CC(=O)O)C(C)C)C(C)C | 0

Per the assay record, what outcome was assigned to CCS(=O)(=O)N1CCN(c2c(Cl)cccc2[N+](=O)[O-])CC1 ? 0
